Hey, just so you know, these numbers are from PubChem BioAssay (NCI).

# Test system: UACC-257 melanoma
# assay info: NCI tumour cell line growth inhibition, 48 h
metric: TGI (µM)
Numbers only, in µM.

{"compound": "Cc1ccc(C)c2c1C(O)(C#Cc1ccccc1)c1ccccc1C2(O)C#Cc1ccccc1 (centres undefined)", "measured target": "UACC-257 melanoma", "numeric result": 6.6}
{"compound": "N#CC1=C(N)n2c(s/c(=C\\c3ccc(Cl)cc3)c2=O)=C(c2nc3ccccc3[nH]2)C1c1ccc(Cl)cc1 (centres undefined)", "measured target": "UACC-257 melanoma", "numeric result": 7.84}
{"compound": "CCN(Cc1cccc(F)c1)c1ccc(CO)c(Cl)c1", "measured target": "UACC-257 melanoma", "numeric result": 0.344}
{"compound": "CC[N+](CC)=c1sc2c(s1)C(c1ccc(Cl)cc1)Oc1ccc(Cl)cc1-2 (centres undefined)", "measured target": "UACC-257 melanoma", "numeric result": 5.46}
{"compound": "CN(C)CCCOc1ccc(-c2ccc3ncc4c(c3c2)n(C2CCOCC2)c(=O)n4C)cn1", "measured target": "UACC-257 melanoma", "numeric result": 12.2}
{"compound": "CO[C@H]1/C=C/O[C@@]2(C)Oc3c(C)c(O)c4c(c3C2=O)C(=O)C(/C=N/N(c2ccccc2)c2ccccc2)=C(NC(=O)/C(C)=C\\C=C\\[C@H](C)[C@H](O)[C@@H](C)[C@@H](O)[C@@H](C)[C@H](OC(C)=O)[C@@H]1C)C4=O", "measured target": "UACC-257 melanoma", "numeric result": 3.9}
{"compound": "CCCN(CCCC(NC(C)=O)C(=O)NCc1ccccc1)C(=O)N(CCCl)N=O (centres undefined)", "measured target": "UACC-257 melanoma", "numeric result": 47.6}
{"compound": "COc1cccc(-c2nc3sccn3c2-c2ccnc(NCCCNS(=O)(=O)c3cccc(F)c3)c2)c1", "measured target": "UACC-257 melanoma", "numeric result": 9.68}

Quick batch: TGI for everything below.
1. C[Si](C)(OCCS(=O)(=O)O)C1(Cc2cccc3ccccc23)S(=O)(=O)OCCOS1(=O)=O
2. C=C1C(=O)O[C@H]2C[C@@H]1CC/C(C)=C/CC/C(C)=C/CC[C@H]2C

Out:
80.1
29.4
